tgt: Phosphatidylinositol 5-phosphate 4-kinase type-2 alpha (Homo sapiens)
assay_text: qHTS for Inhibitors of PI5P4K: Confirmation in Primary Assay; further: nearly all actives have a fitted effect of over 65% in size
details: PI5P4Kalpha enzyme, ADP-Glo luminescence, 60 min; series mostly up to 76.9 µM
The campaign covered roughly 1,100 compounds. About 340 (31%) were called active. About 40% were inconclusive and are not listed. The call rests on the fitted dose curve; in most records, active means well fitted inhibition curve with a large enough effect; inconclusive means small, poorly fitted or top-dose-only effect; inactive means flat fitted curve, though single readings scatter. The list is a sample of the results.
Hi there, use one of these labels in your reply, thanks! t for active, f for inactive

Task item: For this compound, state the assay outcome: `CC(=O)Nc1ccc(NC(=S)Nc2ccc(Br)cc2)cc1`
Reply: f

Task item: Next compound: `O=C(COC(=O)c1ccc(NS(=O)(=O)c2cccs2)cc1O)Nc1nc2ccccc2s1`
Reply: t

Task item: One more compound: CCOC(=O)Nc1ccc2c(CNC(C)c3ccccc3OC)cc(=O)oc2c1 (stereo not given)
Reply: f

Task item: Moving on to `Cc1ccc(C)c(C2=NNC(=NCc3ccccc3)SC2)c1`
Reply: f

Task item: // same read-out, input: `CCOC(=O)Nc1ccc(NCc2ccc(F)cc2)nc1N`
Reply: t

Task item: Same again, this time with CC1Cc2ccccc2N1C(=O)COC(=O)CCc1nc2ccccc2c(=O)[nH]1 (stereo not given)
Reply: f

Task item: Another compound to check: `Cc1cc(C)cc(NC(=O)Cn2nnc(C(=O)NCc3ccc(F)cc3)c2N)c1`
Reply: f

Task item: Input Cc1ccc(Nc2nc(C)c3c(n2)CC(C)CC3=O)c(C)c1 (stereo not given)
Reply: f

Task item: // next record `COc1cc(Cn2c3ccc(NC(=O)CCc4ccccc4)cc3c(=O)n2C)ccc1F`
Reply: f

Task item: Also check `O=C(c1cccc(-n2cccc2)c1)N1CCN(S(=O)(=O)c2ccccc2)CC1`
Reply: t

----------
tgt: Phosphatidylinositol 5-phosphate 4-kinase type-2 alpha (Homo sapiens) (UniProt P48426)
Sequence (P48426 whole entry, looked up): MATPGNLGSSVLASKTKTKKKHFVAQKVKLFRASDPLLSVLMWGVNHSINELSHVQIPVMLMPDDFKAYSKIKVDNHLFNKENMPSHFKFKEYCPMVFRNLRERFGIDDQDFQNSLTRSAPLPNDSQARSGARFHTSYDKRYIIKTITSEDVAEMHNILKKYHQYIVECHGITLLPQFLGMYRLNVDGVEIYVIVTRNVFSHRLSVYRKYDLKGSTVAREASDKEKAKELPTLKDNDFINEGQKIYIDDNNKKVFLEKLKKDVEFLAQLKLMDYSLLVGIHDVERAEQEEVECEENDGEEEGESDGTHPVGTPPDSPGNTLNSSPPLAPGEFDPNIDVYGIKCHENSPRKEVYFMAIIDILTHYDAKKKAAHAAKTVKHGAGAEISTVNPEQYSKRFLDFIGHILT
assay_text: qHTS for Inhibitors of PI5P4K: Confirmation in Primary Assay; further: nearly all actives have a fitted effect of over 65% in size
details: PI5P4Kalpha enzyme, ADP-Glo luminescence, 60 min; series mostly up to 76.9 µM
About 340 (31%) of roughly 1,100 compounds were called active. Roughly 40% stayed inconclusive and do not appear here. Calls follow the shape of the dose curve; as a rule, active = well fitted inhibition curve with a large enough effect; inconclusive = small, poorly fitted or top-dose-only effect; inactive = flat fitted curve, though single readings scatter. Not all results are given here.
In this exercise, the only acceptable responses are yes (active), no (inactive)

Task item: # lookup: test call for `O=C(COc1ccc([N+](=O)[O-])cc1)Nc1cccnc1`
Reply: no

Task item: What do you get for `CC[C@]12c3[nH]c4cc(-c5ccco5)ccc4c3CCN1C(=O)[C@@H](CC(=O)NCCC1=CCCCC1)C[C@@H]2C(=O)N1CCN(C(=O)c2ccco2)CC1` ?
Reply: no

Task item: Then `CCO[C@@H]1OC(C(=O)NCc2ccccc2)=C[C@H](C(C)(C)C)[C@H]1CCCO` ?
Reply: no

Task item: Now consider `Cn1nnnc1Sc1ncnc2scc(-c3ccccc3C(F)(F)F)c12` .
Reply: yes

Task item: Consider next the compound NC(=O)[C@@H]1CC2(CC(c3cccc(NC(=O)COc4ccc(Cl)cc4)c3)=NO2)CN1C(=O)COc1ccc(Cl)cc1 (stereo partly drawn) in the same way.
Reply: no

Task item: Same read-out for `Cc1cccc(-n2c(SCC(N)=O)nc3c(c2=O)C2(CCCC2)Cc2ccccc2-3)c1` ?
Reply: no

Task item: Same question for COc1ccc(N(C(=O)C2CSC(=O)C2)C(C(=O)NC(C)(C)C)c2ccncc2)cc1 (stereo not drawn) please.
Reply: no

Task item: # iterate: `O=C(NCC1CC1)c1ccc(Nc2nc3ccc(Br)cc3[nH]2)cc1`
Reply: no

Task item: Request: `O=C(COc1ccccc1)Nc1cccc(-c2ccc(N3CCOCC3)nn2)c1`
Reply: no

Task item: Ok, now Cc1sc2ncn(CC(=O)N3CCC(C(N)=O)CC3)c(=O)c2c1S(=O)(=O)N1CC(C)CC(C)C1 (stereo not drawn)
Reply: no

Task item: Thanks! And `O=C(CCNS(=O)(=O)c1ccc(Br)s1)NCc1ccccc1Cl` ?
Reply: no

Task item: // next record `COc1ccc(CCNC(=O)c2cc(-c3ccco3)nc3ccccc23)cc1`
Reply: yes

Task item: What do you get for `CCn1cc(C(=O)N2CCN(c3cccc(C)c3C)CC2)c(=O)c2ccc(C)nc21` ?
Reply: no

Task item: Another: COc1cccc(N2CCN(C(=O)c3ccc(CS(=O)c4ccccc4C)o3)CC2)c1 (stereo not drawn)
Reply: no

Task item: What about `O=C(COc1ccc2ccccc2c1)Nc1cccc(C(=O)Nc2ccccc2C(=O)O)c1` ?
Reply: yes

Task item: Another compound to check: `CCc1c(C)sc(NC(=O)c2ccoc2C)c1C(N)=O`
Reply: yes

Task item: What about this compound? `O=C(Nc1cccc2cccnc12)c1csc(COCCO)n1`
Reply: no

Task item: Input `Cc1nc(CS(=O)(=O)c2ccccc2)cc(N2CCOCC2)n1`
Reply: no

Task item: Also Cc1ccc(S(=O)c2ccc(NC(=O)C3CC3)cc2C#N)cc1 (stereo not drawn) , if possible.
Reply: no

Task item: `CCn1c(CC(=O)Nc2ccccc2F)nnc1SCC(=O)NC1CCCCC1` , same question.
Reply: no

Task item: # iterate: `CCN(CC)C(=O)COC(=O)c1cc(-c2ccco2)nc2ccccc12`
Reply: yes

Task item: Cc1cccc(S(=O)(=O)NC(=O)C2(C)CCN2C(=O)Cc2cc(F)ccc2F)c1 (stereo not drawn) , same question.
Reply: no

Task item: And then `COc1ccc2c(c1)c(=O)oc1c(C)c(OCc3cc(C(=O)O)oc3C)ccc12` , what is it?
Reply: yes

Task item: Request: `CC1=NN(c2nc(-c3ccc(Cl)cc3)cs2)C(=O)C1`
Reply: yes

Task item: Could you do the same for `COc1ccc(-c2cc(C(=O)Nc3ccccc3O)c3ccccc3n2)cc1` , please?
Reply: no

Task item: `N#Cc1cc(-c2ccccc2)nn1-c1ccccc1` , same question.
Reply: yes

Task item: Same thing, different compound: `COc1cc(=O)[nH]c(=O)n1C(=O)Cc1ccccc1`
Reply: no

Task item: Record: `Cc1ccc2cc(CCl)c(Cl)nc2c1`
Reply: no

Task item: And then `CN1CCN(S(=O)(=O)c2ccc(N3CCc4ccccc4C3)nc2)CC1` , what is it?
Reply: no

Task item: For `Cc1ccc(-c2cc3c(n2-c2ccc(C(=O)O)cc2)CCCC3=O)cc1` then?
Reply: yes

Task item: Queued: `CN1OC[C@@H]2CN3C(=O)N(c4cccc5ccccc45)c4ccccc4[C@@H]3C[C@@H]21`
Reply: no

Task item: Now this one: CCCCC1Cc2[nH][nH]c(=O)c2C(c2ccc(F)cc2)O1 (stereo not drawn)
Reply: no

Task item: Now consider `NC(=O)C1CCN(c2cc(Cl)nc(N)n2)CC1` and answer again.
Reply: no

Task item: How about CC1Cc2ccccc2N1C(=O)CNc1cccc(S(=O)(=O)N2CCCC2)c1 (stereo not drawn) ?
Reply: no

Task item: CC(NC(=O)c1ccnn1C)C1CCCO1 (stereo not drawn) ?
Reply: no

Task item: Please give the result for `COc1ccc(OC)c(NC(=O)COC(=O)c2cc3c(s2)CCC3)c1` too.
Reply: yes

Task item: What about COc1cccc(NS(=O)(=O)c2ccc3c(c2)C2C=CCC2C(c2ccc(C(=O)O)cc2)N3)c1 (stereo not drawn) ?
Reply: yes

Task item: Similarly, Cc1cccc(NC(c2ccc(O)cc2)c2ccc3ccc(C)nc3c2O)n1 (stereo not drawn) ?
Reply: yes

Task item: Now consider `CCNC(=O)COC(=O)c1cc(-c2ccco2)nc2ccccc12` .
Reply: yes

Task item: Next compound: `Cc1ccc(-c2nc3c(c(=O)[nH]c(=O)n3Cc3ccccc3)n2C)o1`
Reply: yes

Task item: Would you kindly repeat that for `CCOc1ccc(CCNS(=O)(=O)c2cn(C)cn2)cc1OCC` ?
Reply: no

Task item: Also `Cc1cc2ccccc2nc1SCC(=O)NC1CCCC1` ?
Reply: no

Task item: // query: `CC(C)(C)NC(=O)Nc1ccc(Cn2cc(C(F)(F)F)ccc2=O)cc1`
Reply: no
